Field: mean cell size. Provide a value for each of the compounds that follow.
test system: Jurkat; test: mean cell size (FSC-A) relative to DMSO control (fraction of control); higher = larger cells; conditions: 48 h
Structures can show the parent of a compound that is named as a salt.
Respond using a number only.

Identify the measured mean cell size of O=C(O)[C@H]1/C(=C/CO)O[C@@H]2CC(=O)N21 [Clavulanate Potassium] (concentration: 25 µM) for Jurkat.
0.994

Repeat with CCC1=C[C@@H]2CN(C1)Cc1c([nH]c3ccccc13)[C@@](C(=O)OC)(c1cc3c(cc1OC)N(C)[C@H]1[C@@](O)(C(=O)OC)[C@H](OC(C)=O)[C@]4(CC)C=CCN5CC[C@]31[C@@H]54)C2 [Vinorelbine] (concentration: 250 nM)
0.941

Repeat with O=C(O)CCCCCCCC(=O)O [Azelaic Acid] (concentration: 25 µM)
0.921

Repeat with CCCN(CCC)S(=O)(=O)c1ccc(C(=O)O)cc1 [Probenecid] (concentration: 25 µM)
0.993

Repeat with c1ccc2c(CC3=NCCN3)cccc2c1 [Naphazoline·HCl] (concentration: 25 µM)
0.94

---

system: Jurkat; assay: mean cell size (FSC-A) relative to DMSO control (fraction of control); higher = larger cells; conditions: 48 h
Field: mean cell size. Provide a value for each of the compounds that follow.
Respond using a number only.

What value of mean cell size has been reported for the following compound? C#C[C@]1(O)CC[C@H]2[C@@H]3CCC4=CC(=O)CC[C@@H]4[C@H]3CC[C@@]21CC [Levonorgestrel] (concentration: 25 µM)
0.941

Repeat with Cn1nnc2c(C(N)=O)ncn2c1=O [Temozolomide] (concentration: 25 µM)
0.959

Repeat with C/C(=C\C(=O)OCCCCCCCCC(=O)O)C[C@@H]1OC[C@H](C[C@@H]2O[C@H]2[C@@H](C)[C@H](C)O)[C@@H](O)[C@H]1O [Mupirocin] (concentration: 25 µM)
0.928

Repeat with NC[C@H](O)c1ccc(O)c(O)c1 [Norepinephrine Bitartrate Monohydrate] (concentration: 25 µM)
0.967

Repeat with CN(Cc1cnc2nc(N)nc(N)c2n1)c1ccc(C(=O)N[C@@H](CCC(=O)O)C(=O)O)cc1 [Methotrexate] (concentration: 25 nM)
1.16

Repeat with CC(C)(C)NCC(O)c1cc(O)cc(O)c1 (configuration not stated) [Terbutaline Hemisulfate] (concentration: 25 µM)
0.92

Repeat with Cc1cccn2c(=O)c(-c3nnn[nH]3)cnc12 [Pemirolast Potassium] (concentration: 25 µM)
0.938

---

tested on: Jurkat; test: cell count relative to DMSO control (fraction of control); higher = more cells (less growth inhibition); conditions: 48 h
Structures can show the parent of a compound that is named as a salt.
Quantity name: cell count

What value of cell count has been reported for the following molecule? O=C1CCc2ccc(OCCCCN3CCN(c4cccc(Cl)c4Cl)CC3)cc2N1 [Aripiprazole] (concentration: 25 µM)
0.89

Repeat with Cc1cccc(C)c1OCC(=O)N[C@@H](Cc1ccccc1)[C@@H](O)C[C@H](Cc1ccccc1)NC(=O)[C@H](C(C)C)N1CCCNC1=O [Lopinavir] (concentration: 25 µM)
0.373

Repeat with O=C1O[C@H]([C@@H](O)CO)C(O)=C1O [L-Ascorbic Acid] (concentration: 25 µM)
0.836

Repeat with CC(C)NCC(O)COc1cccc2ccccc12 (centres undefined) [Propranolol·HCl] (concentration: 25 µM)
0.633

Repeat with CCOc1ccc2ccccc2c1C(=O)N[C@@H]1C(=O)N2[C@@H]1SC(C)(C)[C@@H]2C(=O)O [Nafcillin·Na] (concentration: 25 µM)
0.569

Repeat with CC(=O)OCC(=O)[C@@]1(O)CC[C@H]2[C@@H]3CCC4=CC(=O)CC[C@]4(C)[C@@]3(F)[C@@H](O)C[C@@]21C [Fludrocortisone Acetate] (concentration: 25 µM)
0.63

Repeat with CCOC(=O)[C@H](CCc1ccccc1)N[C@@H](C)C(=O)N1[C@H](C(=O)O)C[C@@H]2CCC[C@@H]21 [Ramipril] (concentration: 25 µM)
0.965

Repeat with C[C@]12C=CC(=O)C=C1CC[C@@H]1[C@@H]2[C@@H](O)C[C@@]2(C)[C@H]1CC[C@]2(O)C(=O)CO [Prednisolone] (concentration: 25 µM)
0.836

Repeat with CC[C@@H]1C(=O)OC[C@@H]1Cc1cncn1C [Pilocarpine·HCl] (concentration: 25 µM)
0.246
